Where do the numbers come from? From ChEMBL document CHEMBL5154748.

Please go through the items and note down their Activity.
# experiment_notes: Antioxidant activity assessed as trolox equivalent of ORAC radical scavenging activity by ORAC-FL assay
# Format: functional
// no unit string in output, number only

Name the recorded Activity for CCCCC1OC(=O)c2cc(OCc3ccc(CN(CC)CC)c(O)c3)ccc21 (configuration not stated) .
1.53

Data request, read-out Activity, for CCCCC1OC(=O)c2cc(OCc3cccc(CN4CCCC4)c3O)ccc21 (configuration not stated)
2.38

Report Activity for CCCCC1OC(=O)c2cc(OCc3ccc(CN4CCCC4)c(O)c3)ccc21 (configuration not stated) please.
1.73

Dear colleague, I am looking for the recorded Activity of the following compound: CCCCC1OC(=O)c2cc(OCc3ccccc3O)ccc21 (configuration not stated)
1.03

Recorded Activity of CCCCC1OC(=O)c2cc(OCc3ccc(CN(C)C)c(O)c3)ccc21 (configuration not stated) , please.
1.62

Reported Activity, compound CCCCC1OC(=O)c2cc(OCc3ccc(CN4CCOCC4)c(O)c3)ccc21 (configuration not stated) : ____
1.12

What value of Activity has been recorded for this entry: CCCCC1OC(=O)c2ccccc21 (racemic) [RAC-3-N-BUTYLPHTHALIDE]
0.21

What value of Activity has been recorded for this entry: CCCCC1OC(=O)c2cc(OCc3ccc(CN4CCN(C)CC4)c(O)c3)ccc21 (configuration not stated)
0.96

Name the reported Activity value associated with the compound CCCCC1OC(=O)c2cc(OCc3ccc(CN4CCCCC4)c(O)c3)ccc21 (configuration not stated)
1.86

What measured Activity goes with CCCCC1OC(=O)c2cc(OCc3ccc(CN(CC)Cc4ccccc4)c(O)c3)ccc21 (configuration not stated) ?
1.15

Name the recorded Activity for CCCCC1OC(=O)c2cc(OCc3cccc(O)c3)ccc21 (configuration not stated) .
0.88

Which Activity is reported for this compound? CCCCC1OC(=O)c2cc(OCc3cccc(CN(CC)CC)c3O)ccc21 (configuration not stated)
2.02
